# test-target: Large subunit-rSCFV5 fusion protein
# Sequence (chain, as listed by the source): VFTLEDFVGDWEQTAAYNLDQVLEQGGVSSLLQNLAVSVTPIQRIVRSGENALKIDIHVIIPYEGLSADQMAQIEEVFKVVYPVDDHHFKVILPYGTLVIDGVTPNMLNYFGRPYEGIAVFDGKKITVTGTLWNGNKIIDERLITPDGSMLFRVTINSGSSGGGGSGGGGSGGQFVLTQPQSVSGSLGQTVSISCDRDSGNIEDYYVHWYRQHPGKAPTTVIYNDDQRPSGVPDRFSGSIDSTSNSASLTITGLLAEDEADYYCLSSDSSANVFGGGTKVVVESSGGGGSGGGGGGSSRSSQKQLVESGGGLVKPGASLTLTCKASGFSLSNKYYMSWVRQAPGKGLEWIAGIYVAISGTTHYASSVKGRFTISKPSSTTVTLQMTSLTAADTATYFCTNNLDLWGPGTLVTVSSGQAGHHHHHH
# test: cell-based or functional assay
readout-name: Signal-to-noise ratio
# answer = number (no unit)

>  <binder>
VEGYRLFEKVS (peptide, part only; not given: rSCFV18 scFv part, part only) [rSCFV18-small subunit mutant fusion protein RC-042]

>  <recorded-value>
9.7

$$$$
>  <binder>
VEGYRLFDKKW (peptide, part only; not given: rSCFV18 scFv part, part only) [rSCFV18-small subunit mutant fusion protein RB239]

>  <recorded-value>
67.7

$$$$
>  <binder>
VEGYRLFEKKL (peptide, part only; not given: rSCFV18 scFv part, part only) [rSCFV18-small subunit mutant fusion protein RB149]

>  <recorded-value>
21

$$$$

Now for the binder whose Signal-to-noise ratio we want.
Give Signal-to-noise ratio for VEGYRLFNRVS (peptide, part only; not given: rSCFV18 scFv part, part only) [rSCFV18-small subunit mutant fusion protein RB027]
22.6
